Data origin, for the record: patent US20210155689A1

Assayed target: T1, human LAG-3 on cells (HEK293-hLAG-3 stable cell line) (human, UniProt P18627 23-525)
T1 sequence: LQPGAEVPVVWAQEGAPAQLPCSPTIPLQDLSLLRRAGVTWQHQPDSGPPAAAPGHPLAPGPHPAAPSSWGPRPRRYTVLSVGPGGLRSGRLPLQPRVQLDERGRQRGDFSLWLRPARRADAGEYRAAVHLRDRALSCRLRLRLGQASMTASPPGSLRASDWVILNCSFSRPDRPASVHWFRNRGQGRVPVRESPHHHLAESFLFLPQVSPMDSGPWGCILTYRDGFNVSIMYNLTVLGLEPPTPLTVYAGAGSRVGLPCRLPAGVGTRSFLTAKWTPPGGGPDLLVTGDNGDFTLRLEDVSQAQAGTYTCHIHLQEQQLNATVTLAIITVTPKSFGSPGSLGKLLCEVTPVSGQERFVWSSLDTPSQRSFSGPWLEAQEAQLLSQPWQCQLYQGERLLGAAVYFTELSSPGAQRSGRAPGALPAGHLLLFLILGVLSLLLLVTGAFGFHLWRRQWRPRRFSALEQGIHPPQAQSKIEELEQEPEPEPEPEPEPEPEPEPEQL
Test summary: cell-based or functional assay
The following binders are shown together with reported IL-2 production, antigen-specific T lymphocyte stimulation test, 2 ug/ml, N = 1 values.
The figure you give is taken to be in pg/mL; do not add the unit.

{"columns": ["Binder", "Readout units", "Assay result"],
 "data": [
  ["105F1E10 mouse-human chimeric antibody (antibody, V domains shown, also called mAb009-105F1E10) VH: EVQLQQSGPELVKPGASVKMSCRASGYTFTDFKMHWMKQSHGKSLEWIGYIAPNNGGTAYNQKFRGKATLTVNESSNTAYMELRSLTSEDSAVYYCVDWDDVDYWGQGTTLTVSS VL: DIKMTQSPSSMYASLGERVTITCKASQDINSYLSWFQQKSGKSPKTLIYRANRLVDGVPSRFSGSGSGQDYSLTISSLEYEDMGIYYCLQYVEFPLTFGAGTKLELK", "pg/mL", 853],
  ["409D4E10 mouse-human chimeric antibody (antibody, V domains shown, also called mAb112-409D4E10) VH: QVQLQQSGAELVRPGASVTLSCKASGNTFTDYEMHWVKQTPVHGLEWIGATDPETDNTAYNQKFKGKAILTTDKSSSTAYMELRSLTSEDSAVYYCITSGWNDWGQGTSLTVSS VL: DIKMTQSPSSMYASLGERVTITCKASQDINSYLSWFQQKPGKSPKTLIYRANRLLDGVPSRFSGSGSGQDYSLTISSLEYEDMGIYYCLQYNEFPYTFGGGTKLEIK", "pg/mL", 825]
]}

Here is another binder to look at.
*Q* # input binder: 409B11E12 mouse-human chimeric antibody (antibody, V domains shown, also called mAb104-409B11E12) VH: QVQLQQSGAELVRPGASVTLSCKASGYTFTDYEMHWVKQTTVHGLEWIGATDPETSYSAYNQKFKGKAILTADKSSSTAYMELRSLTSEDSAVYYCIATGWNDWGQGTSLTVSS VL: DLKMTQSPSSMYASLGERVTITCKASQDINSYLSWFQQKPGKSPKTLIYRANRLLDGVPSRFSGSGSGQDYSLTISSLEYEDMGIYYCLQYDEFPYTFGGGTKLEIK ; wanted: its IL-2 production, antigen-specific T lymphocyte stimulation test, 2 ug/ml, N = 1
*A* 914
